- measured.target: EGFR del19/C797S (Homo sapiens, UniProt P00533, C797S/DEL746-750)
- Sequence (P00533 with tags, fused parts or gaps DEL746-750/C797S): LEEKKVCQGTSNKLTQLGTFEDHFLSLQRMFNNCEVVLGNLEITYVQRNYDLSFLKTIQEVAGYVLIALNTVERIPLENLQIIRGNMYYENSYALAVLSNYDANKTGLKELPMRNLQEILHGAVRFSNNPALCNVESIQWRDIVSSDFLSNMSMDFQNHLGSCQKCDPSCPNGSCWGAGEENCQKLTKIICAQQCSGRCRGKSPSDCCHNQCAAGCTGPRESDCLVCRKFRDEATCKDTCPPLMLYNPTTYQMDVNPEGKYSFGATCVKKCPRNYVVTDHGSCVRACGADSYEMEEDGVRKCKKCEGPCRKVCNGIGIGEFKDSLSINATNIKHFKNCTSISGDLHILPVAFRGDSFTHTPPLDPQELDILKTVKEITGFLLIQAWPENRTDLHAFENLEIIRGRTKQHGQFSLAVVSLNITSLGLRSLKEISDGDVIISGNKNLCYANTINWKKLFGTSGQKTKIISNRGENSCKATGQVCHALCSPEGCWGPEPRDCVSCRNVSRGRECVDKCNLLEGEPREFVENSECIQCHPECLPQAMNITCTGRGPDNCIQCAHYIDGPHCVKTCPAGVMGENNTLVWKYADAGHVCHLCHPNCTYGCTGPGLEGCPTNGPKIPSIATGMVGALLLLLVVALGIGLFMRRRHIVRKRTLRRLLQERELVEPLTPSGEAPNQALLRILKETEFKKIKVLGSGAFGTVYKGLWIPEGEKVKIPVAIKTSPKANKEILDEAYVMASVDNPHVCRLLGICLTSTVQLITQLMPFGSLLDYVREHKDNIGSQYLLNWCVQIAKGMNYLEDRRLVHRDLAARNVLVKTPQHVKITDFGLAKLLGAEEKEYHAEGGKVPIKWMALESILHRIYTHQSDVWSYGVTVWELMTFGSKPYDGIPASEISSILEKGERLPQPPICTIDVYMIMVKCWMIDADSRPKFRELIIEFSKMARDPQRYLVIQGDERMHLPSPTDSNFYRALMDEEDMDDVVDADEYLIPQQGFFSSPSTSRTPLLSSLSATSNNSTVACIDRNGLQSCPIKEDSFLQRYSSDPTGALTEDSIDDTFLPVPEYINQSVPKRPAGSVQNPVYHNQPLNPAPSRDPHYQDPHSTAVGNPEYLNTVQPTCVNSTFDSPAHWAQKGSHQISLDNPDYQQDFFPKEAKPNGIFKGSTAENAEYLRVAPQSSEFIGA
- experimental.protocol: Biochemical EGFR kinase assay (Lance Ultra TR-FRET), double mutant del19/C797S
- reported.conditions: ATP at Km; read-out: IC50 del19/C797S, Km ATP
pIC50: −log10 of the molar value.
experimental.endpoint: pIC50

// solved cases for pIC50 follow
- CC(C)(O)c1ccc(-c2cnc(Nc3ccnc(-c4cnn(S(=O)(=O)C5CC5)c4)n3)cc2NC2CCN(CCF)CC2)nc1 [Example 176]: 8.26
- C[C@]1(O)CC[C@@H](Nc2cc(Nc3ccnc(-c4cnn(S(=O)(=O)C5CC5)c4)n3)ncc2-c2cccc(NCCO)n2)CC1 [Example 285]: 9.40
- CC(C)(O)[C@H]1CC[C@@H](Nc2cc(Nc3ccnc(-c4cnn(S(=O)(=O)C5CC5)c4)n3)ncc2-c2cnc(F)cn2)CC1 [Example 186]: 7.94
- CC(C)(O)[C@H]1CC[C@@H](Nc2cc(Nc3ccnc(-c4cnn(S(=O)(=O)C5CC5)c4)n3)ncc2-c2cc(OCCN3CCOCC3)ccn2)CC1 [Example 213]: 8.42
- CC(C)(O)[C@H]1CC[C@@H](Nc2cc(Nc3ccnc(-c4cnn(S(=O)(=O)C5CC5)c4)n3)ncc2-c2ccc(N3CC(F)(F)C3)cn2)CC1 [Example 225]: 7.79

a = O=S(=O)(C1CC1)n1cc(-c2nccc(Nc3cc(N[C@H]4CC[C@@H](CO)CC4)c(-c4cccc(F)n4)cn3)n2)cn1 [Example 272]
b = COC(c1ccc(-c2cnc(Nc3ccnc(-c4cnn(S(=O)(=O)C5CC5)c4)n3)cc2NC2CCC(CN(C)C)CC2)nc1)C(F)(F)F (stereo not shown) [Example 262]
Ask: Hi team, can someone confirm which has the larger pIC50: a or b ? Thanks. Answer = label.
Result: a

P = CN1CCC(Oc2ccc(-c3cnc(Nc4ccnc(-c5cnn(S(=O)(=O)C6CC6)c5)n4)cc3N[C@H]3CC[C@@](C)(O)CC3)nn2)CC1 [Example 269]
Q = O=S(=O)(C1CC1)n1cc(-c2nccc(Nc3cc(NC4CCC(F)(CO)CC4)c(-c4cccc(F)n4)cn3)n2)cn1 (stereo not shown) [Example 162]
R = CN1CCC(Oc2ccc(-c3cnc(Nc4ccnc(-c5cnn(S(=O)(=O)C6CC6)c5)n4)cc3NC3CCC(F)(CO)CC3)nc2)CC1 (stereo not shown) [Example 259]
Ask: I would appreciate it if you could sort these 3 compounds by pIC50, starting from the smallest number. The reply should contain the labels ordered as requested.
Result: Q, R, P
(Q: 7.88, R: 8.72, P: 9.40)

P = CC(C)Nc1cc(Nc2ccnc(-c3cnn(S(=O)(=O)C4CC4)c3)n2)ncc1-c1ccc(OC2CCN(C)CC2)cn1 [Example 249]
Q = CC(C)(O)c1ccc(-c2cnc(Nc3ccnc(-c4cnn(S(=O)(=O)C5CC5)c4)n3)cc2N[C@H]2CC[C@@](C)(O)CC2)nc1 [Example 168]
R = CC(C)(O)[C@H]1CC[C@@H](Nc2cc(Nc3ccnc(-c4cnn(S(=O)(=O)C5CC5)c4)n3)ncc2-c2cc(NC3CC(F)(F)C3)ccn2)CC1 [Example 215]
Ask: Hey, quick one: sort these by pIC50, largest value first please. The reply should contain the labels ordered as requested.
Result: Q, P, R
(Q: 9.70, P: 9.40, R: 8.11)
